target entity: human platelet PDE3 (Homo sapiens (Human))
Sequence (Q14432 whole entry): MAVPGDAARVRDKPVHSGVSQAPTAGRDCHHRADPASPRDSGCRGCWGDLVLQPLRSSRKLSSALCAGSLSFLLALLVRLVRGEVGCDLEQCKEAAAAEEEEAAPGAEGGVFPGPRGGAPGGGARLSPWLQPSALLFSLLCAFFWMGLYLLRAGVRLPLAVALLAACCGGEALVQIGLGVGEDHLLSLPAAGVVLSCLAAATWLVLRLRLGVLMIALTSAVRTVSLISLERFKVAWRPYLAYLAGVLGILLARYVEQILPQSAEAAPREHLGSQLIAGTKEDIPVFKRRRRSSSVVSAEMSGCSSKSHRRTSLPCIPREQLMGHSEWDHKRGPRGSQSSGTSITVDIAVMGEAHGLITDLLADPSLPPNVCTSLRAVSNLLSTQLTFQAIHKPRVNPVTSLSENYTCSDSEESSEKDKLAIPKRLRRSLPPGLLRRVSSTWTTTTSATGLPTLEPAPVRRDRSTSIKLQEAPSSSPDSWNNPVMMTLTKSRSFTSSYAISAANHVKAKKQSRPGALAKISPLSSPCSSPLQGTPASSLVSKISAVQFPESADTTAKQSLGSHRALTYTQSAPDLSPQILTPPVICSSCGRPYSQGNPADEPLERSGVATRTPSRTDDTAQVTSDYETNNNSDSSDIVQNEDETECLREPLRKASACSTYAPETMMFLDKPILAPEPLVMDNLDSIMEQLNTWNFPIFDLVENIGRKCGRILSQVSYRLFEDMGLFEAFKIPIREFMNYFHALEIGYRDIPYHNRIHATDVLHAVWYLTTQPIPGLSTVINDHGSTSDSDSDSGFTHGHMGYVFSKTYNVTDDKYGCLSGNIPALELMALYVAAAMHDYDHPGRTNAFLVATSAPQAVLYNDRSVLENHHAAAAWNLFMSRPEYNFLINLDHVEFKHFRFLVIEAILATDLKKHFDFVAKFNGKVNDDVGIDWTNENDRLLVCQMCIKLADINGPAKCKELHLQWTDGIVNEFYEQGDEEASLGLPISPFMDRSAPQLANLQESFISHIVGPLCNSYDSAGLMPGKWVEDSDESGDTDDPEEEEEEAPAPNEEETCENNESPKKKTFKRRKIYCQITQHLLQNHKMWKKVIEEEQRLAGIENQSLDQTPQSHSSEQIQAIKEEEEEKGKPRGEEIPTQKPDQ
run description: hPDE3 assay ([3H]cAMP scintillation proximity assay)
Type: biochemical
experimental context: human platelet PDE3
Where a name gives a salt, the structure may show the parent alone.
IC50 values for the compounds below.

{"compound": "C/C(=N\\O)c1ccc2nnc(Sc3ccc4ncc(CN5CCOCC5)cc4c3)n2c1 [Example 79]", "IC50": "> 30 µM"}
{"compound": "Cn1cc(-c2cc(F)c3nnc(Sc4ccc5ncc(N)cc5c4)n3c2)cn1 [Example 55, hydrochloride]", "IC50": "> 30 µM"}
{"compound": "C/C(=N\\OCCO)c1ccc2nnc(Sc3ccc4ncc(N5CCN(C)CC5)cc4c3)n2c1 [Example 86]", "IC50": "27 µM"}
{"compound": "C/C(=N\\O)c1ccc2nnc(Sc3ccc4ncc(N5CCOCC5)cc4c3)n2c1 [Example 77]", "IC50": "12 µM"}
{"compound": "Fc1cc(-c2cn[nH]c2)cn2c(Sc3ccc4ncc(N5CCOCC5)cc4c3)nnc12 [Example 58]", "IC50": "13 µM"}

Origin of values: patent US9062045B2
